# viability, T/C listing for each entry below
Test system: 947758-054-R-J2-PDC spheroid growth, percent test/control
Assay: Anticancer human tumor 947758-054-R-J2-PDC patient-derived colon adenocarcinoma cell line growth inhibition [CLK]
Settings: second compound 0.0316 µM; first compound 0.003 µM; stronger effect = lower value; spheroids with HUVEC and MSC

Briefly, viability, T/C measured for CC(C)CC(NC(=O)C(Cc1ccccc1)NC(=O)c1cnccn1)B(O)O (centres undefined) + CNC(=O)c1ccc(Nc2nc(OC3CCCC3)c3c(-c4ccc5nc(C)oc5c4)c[nH]c3n2)c(OC)c1 : 1.15%

viability, T/C recorded for this molecule, C=CC(=O)Nc1cc(Nc2nccc(-c3cn(C)c4ccccc34)n2)c(OC)cc1N(C)CCN(C)C + CN1CCN(c2cc(C(=O)Nc3cc4cc(-c5cnn(C)c5)ccc4cn3)ccn2)CC1 , is 111%

The molecule C=CC(=O)Nc1cc(Nc2nccc(-c3cn(C)c4ccccc34)n2)c(OC)cc1N(C)CCN(C)C + CNC(=O)c1ccc(Nc2nc(OC3CCCC3)c3c(-c4ccc5nc(C)oc5c4)c[nH]c3n2)c(OC)c1 showed viability, T/C equal to 78.9%

Next:
The molecule listed as CC(C)CC(NC(=O)C(Cc1ccccc1)NC(=O)c1cnccn1)B(O)O (centres undefined) + CN1CCN(c2cc(C(=O)Nc3cc4cc(-c5cnn(C)c5)ccc4cn3)ccn2)CC1 has a reported viability, T/C of 5.43%

====

System: 947758-054-R-J2-PDC spheroid growth, percent test/control
Assay: Anticancer human tumor 947758-054-R-J2-PDC cell line growth inhibition [CLK];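 further: spheroids exposed to compounds for one week before readout; 100% = DMSO vehicle control wells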
Details: second compound 10 µM; first compound 3.16 µM; stronger effect = lower value; spheroids with HUVEC and MSC
From the text: A high-throughput screen of multi-cell type tumor spheroids was designed to identify active combinations of […] and targeted small molecules. Complex spheroids include a stromal component modeled by human endothelial cells (HUVEC) and fibroblasts modeled by human mesenchymal stem cells (MSCs). […] Compounds. […] If the clinical Cmax for an agent had not been determined, the highest concentration tested was 10 microM. […]
MEASURED ENDPOINT: viability, T/C (%)
Give a bare numeral; the unit % is implied.

Example entries begin here.
Summary: CC1COCCN1c1cc(C2(S(C)(=N)=O)CC2)nc(-c2ccnc3[nH]ccc23)n1 (stereo not given) + CNC(=O)c1ccc(Nc2nc(OC3CCCC3)c3c(-c4ccc5nc(C)oc5c4)c[nH]c3n2)c(OC)c1 , 947758-054-R-J2-PDC spheroid growth, percent test/control, viability, T/C = 15.1

The measured viability, T/C that Nc1ccccc1NC(=O)c1ccc(CNC(=O)OCc2cccnc2)cc1 + CN1CCN(c2cc(C(=O)Nc3cc4cc(-c5cnn(C)c5)ccc4cn3)ccn2)CC1 showed for 947758-054-R-J2-PDC spheroid growth, percent test/control is 0.45

The reported viability, T/C value, 947758-054-R-J2-PDC spheroid growth, percent test/control, for C=C(F)C(=O)N1CCN(c2nc(OCC3CCCN3C)nc3c2CCN(c2cccc4cccc(Cl)c24)C3)CC1CC#N (stereo not given) + CNC(=O)c1ccc(Nc2nc(OC3CCCC3)c3c(-c4ccc5nc(C)oc5c4)c[nH]c3n2)c(OC)c1 reads 21.6

The compound CC1COCCN1c1cc(C2(S(C)(=N)=O)CC2)nc(-c2ccnc3[nH]ccc23)n1 (stereo not given) + CN1CCN(c2cc(C(=O)Nc3cc4cc(-c5cnn(C)c5)ccc4cn3)ccn2)CC1 on 947758-054-R-J2-PDC spheroid growth, percent test/control: viability, T/C was 1.09

Consider the record given below.
viability, T/C for 947758-054-R-J2-PDC spheroid growth, percent test/control with input Nc1ccn(C2OC(CO)C(O)C2(F)F)c(=O)n1 (stereo not given) + CNC(=O)c1ccc(Nc2nc(OC3CCCC3)c3c(-c4ccc5nc(C)oc5c4)c[nH]c3n2)c(OC)c1 equals 4.8

====

System: 947758-054-R-J2-PDC spheroid growth, percent test/control
Assay: Anticancer human tumor 947758-054-R-J2-PDC cell line growth inhibition [CLK];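 further: spheroids exposed to compounds for one week before readout; 100% = DMSO vehicle control wells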
Conditions: second compound 3.16 µM; first compound 10 µM; stronger effect = lower value; spheroids with HUVEC and MSC
Kindly apply the following: T if viability, T/C is less than 5%, F in every other case.

Answered examples (5):
input: Dear colleague, could you confirm whether viability, T/C of CC1(C)CCC(CN2CCN(c3ccc(C(=O)NS(=O)(=O)c4ccc(NCC5CCOCC5)c([N+](=O)[O-])c4)c(Oc4cnc5[nH]ccc5c4)c3)CC2)=C(c2ccc(Cl)cc2)C1 + CNC(=O)c1ccc(Nc2nc(OC3CCCC3)c3c(-c4ccc5nc(C)oc5c4)c[nH]c3n2)c(OC)c1 falls below 5%? Thanks.
output: T

input: Does the reported viability, T/C of the following compound sit strictly below 5%? CC1COCCN1c1cc(C2(S(C)(=N)=O)CC2)nc(-c2ccnc3[nH]ccc23)n1 (stereo unspecified) + CNC(=O)c1ccc(Nc2nc(OC3CCCC3)c3c(-c4ccc5nc(C)oc5c4)c[nH]c3n2)c(OC)c1
output: F

input: For CCCS(=O)(=O)Nc1ccc(F)c(C(=O)c2c[nH]c3ncc(-c4ccc(Cl)cc4)cc23)c1F + CN1CCN(c2cc(C(=O)Nc3cc4cc(-c5cnn(C)c5)ccc4cn3)ccn2)CC1 , is the recorded viability, T/C below the cut-off of 5%?
output: T

input: viability, T/C under 5%? Item: COc1cccc2c1C(=O)c1c(O)c3c(c(O)c1C2=O)CC(O)(C(=O)CO)CC3OC1CC(N)C(O)C(C)O1 (stereo unspecified) + CNC(=O)c1ccc(Nc2nc(OC3CCCC3)c3c(-c4ccc5nc(C)oc5c4)c[nH]c3n2)c(OC)c1
output: F

input: Please determine if CCCS(=O)(=O)Nc1ccc(F)c(C(=O)c2c[nH]c3ncc(-c4ccc(Cl)cc4)cc23)c1F + CNC(=O)c1ccc(Nc2nc(OC3CCCC3)c3c(-c4ccc5nc(C)oc5c4)c[nH]c3n2)c(OC)c1 is below 5% in terms of viability, T/C.
output: T

Moving on to another compound below.
input: Given the entry CC1COCCN1c1cc(C2(S(C)(=N)=O)CC2)nc(-c2ccnc3[nH]ccc23)n1 (stereo unspecified) + CN1CCN(c2cc(C(=O)Nc3cc4cc(-c5cnn(C)c5)ccc4cn3)ccn2)CC1 , would its reported viability, T/C be below 5%?
output: T

====

System: 947758-054-R-J2-PDC spheroid growth, percent test/control
Assay: Anticancer human tumor 947758-054-R-J2-PDC cell line growth inhibition [CLK]; active means viability on the fitted dose curve at most 10% of control; inactive means the rest;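 further: spheroids exposed to compounds for one week before readout; 100% = DMSO vehicle control wells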
Conditions: second compound 1 µM; first compound 0.1 µM; spheroids with HUVEC and MSC
Permitted responses: yes for active, no for inactive

input: Recorded test call requested for Nc1ccccc1NC(=O)c1ccc(CNC(=O)OCc2cccnc2)cc1 + CN1CCN(c2cc(C(=O)Nc3cc4cc(-c5cnn(C)c5)ccc4cn3)ccn2)CC1
output: yes

input: Field: outcome | Entry: O=c1[nH]cc(F)c(=O)[nH]1 + CN1CCN(c2cc(C(=O)Nc3cc4cc(-c5cnn(C)c5)ccc4cn3)ccn2)CC1
output: yes

input: Can you look up the reported call for C#Cc1c(F)ccc2cc(O)cc(-c3ncc4c(N5CC6CCC(C5)N6)nc(OCC56CCCN5CC(F)C6)nc4c3F)c12 (stereo not given) + CNC(=O)c1ccc(Nc2nc(OC3CCCC3)c3c(-c4ccc5nc(C)oc5c4)c[nH]c3n2)c(OC)c1 for me?
output: no

input: What did this assay record as the result for Nc1ccn(C2OC(CO)C(O)C2(F)F)c(=O)n1 (stereo not given) + CNC(=O)c1ccc(Nc2nc(OC3CCCC3)c3c(-c4ccc5nc(C)oc5c4)c[nH]c3n2)c(OC)c1 ?
output: yes

API: the following record is the query input.
input: What is the recorded call for this compound in the test? CC1(C)CCC(CN2CCN(c3ccc(C(=O)NS(=O)(=O)c4ccc(NCC5CCOCC5)c([N+](=O)[O-])c4)c(Oc4cnc5[nH]ccc5c4)c3)CC2)=C(c2ccc(Cl)cc2)C1 + CN1CCN(c2cc(C(=O)Nc3cc4cc(-c5cnn(C)c5)ccc4cn3)ccn2)CC1
output: yes

====

Test system: 947758-054-R-J2-PDC spheroid growth, percent test/control
Assay: Anticancer human tumor 947758-054-R-J2-PDC cell line growth inhibition [CLK];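 further: spheroids exposed to compounds for one week before readout; 100% = DMSO vehicle control wells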
Details: second compound 10 µM; first compound 0.1 µM; stronger effect = lower value; spheroids with HUVEC and MSC
Each entry below lists one item and its recorded viability, T/C value.
Respond numerically; units are % and should not be typed.

viability, T/C reported for this compound C=CC(=O)N1CCN(c2nc(=O)n(-c3c(C)ccnc3C(C)C)c3nc(-c4c(O)cccc4F)c(F)cc23)C(C)C1 (stereo not drawn) + CN1CCN(c2cc(C(=O)Nc3cc4cc(-c5cnn(C)c5)ccc4cn3)ccn2)CC1 : 0.29

What the record says about COc1cccc2c1C(=O)c1c(O)c3c(c(O)c1C2=O)CC(O)(C(=O)CO)CC3OC1CC(N)C(O)C(C)O1 (stereo not drawn) + CNC(=O)c1ccc(Nc2nc(OC3CCCC3)c3c(-c4ccc5nc(C)oc5c4)c[nH]c3n2)c(OC)c1 : viability, T/C is 20.3

Entry COc1ccc([C@@H](O)c2cc(-c3ncnc4cc(N5CCOCC5)ccc34)c(F)cc2Cl)nn1 + CN1CCN(c2cc(C(=O)Nc3cc4cc(-c5cnn(C)c5)ccc4cn3)ccn2)CC1 , viability, T/C reported as 0.42
